biological target: Angiotensin-converting enzyme (Rattus norvegicus) (UniProt P47820); experiment: Compound was tested for plasma inhibition of Angiotensin I converting enzyme activity in the conscious rat. Expressed as Inhibition of AI pressor response at 4 hr at a dose of 13.1 mg/kg po; type: organism-based; set-up: dose 13.1 mg/kg
PARAMETER: inhibition
Answer with the value and then the unit.

Input: Name the reported inhibition value associated with the molecule CCCCCCOC(=O)[C@H](Cc1ccc(O)cc1)NC(=O)C1(NC(=O)[C@H](SC(C)=O)C(C)C)CCCC1
Output: 61%

Input: Name the reported inhibition value associated with the molecule CC(=O)S[C@@H](C(=O)NC1(C(=O)N[C@@H](Cc2ccc(O)cc2)C(=O)OCc2ccccc2)CCCC1)C(C)C
Output: 54%

Input: Name the reported inhibition value associated with the molecule CCCCOC(=O)[C@H](Cc1ccc(O)cc1)NC(=O)C1(NC(=O)[C@H](SC(=O)COC)C(C)C)CCCC1
Output: 58%

Input: Name the reported inhibition value associated with the molecule COc1ccc(C[C@H](NC(=O)C2(NC(=O)[C@H](SC(C)=O)C(C)C)CCCC2)C(=O)OCc2ccccc2)cc1
Output: 81%

Input: Name the reported inhibition value associated with the molecule CCCCOC(=O)[C@H](Cc1ccc(O)cc1)NC(=O)C1(NC(=O)[C@H](SC(=O)C(C)C)C(C)C)CCCC1
Output: 25%

Input: Name the reported inhibition value associated with the molecule CCOC(=O)[C@H](Cc1ccc(OC(=O)CC)cc1)NC(=O)C1(NC(=O)[C@H](SC(C)=O)C(C)C)CCCC1
Output: 23%

Input: Name the reported inhibition value associated with the molecule CCCCOC(=O)[C@H](Cc1ccc(O)cc1)NC(=O)C1(NC(=O)[C@H](SC(=O)CCC)C(C)C)CCCC1
Output: 76%

----------
Target: Angiotensin-converting enzyme (Rattus norvegicus)
Sequence (whole entry): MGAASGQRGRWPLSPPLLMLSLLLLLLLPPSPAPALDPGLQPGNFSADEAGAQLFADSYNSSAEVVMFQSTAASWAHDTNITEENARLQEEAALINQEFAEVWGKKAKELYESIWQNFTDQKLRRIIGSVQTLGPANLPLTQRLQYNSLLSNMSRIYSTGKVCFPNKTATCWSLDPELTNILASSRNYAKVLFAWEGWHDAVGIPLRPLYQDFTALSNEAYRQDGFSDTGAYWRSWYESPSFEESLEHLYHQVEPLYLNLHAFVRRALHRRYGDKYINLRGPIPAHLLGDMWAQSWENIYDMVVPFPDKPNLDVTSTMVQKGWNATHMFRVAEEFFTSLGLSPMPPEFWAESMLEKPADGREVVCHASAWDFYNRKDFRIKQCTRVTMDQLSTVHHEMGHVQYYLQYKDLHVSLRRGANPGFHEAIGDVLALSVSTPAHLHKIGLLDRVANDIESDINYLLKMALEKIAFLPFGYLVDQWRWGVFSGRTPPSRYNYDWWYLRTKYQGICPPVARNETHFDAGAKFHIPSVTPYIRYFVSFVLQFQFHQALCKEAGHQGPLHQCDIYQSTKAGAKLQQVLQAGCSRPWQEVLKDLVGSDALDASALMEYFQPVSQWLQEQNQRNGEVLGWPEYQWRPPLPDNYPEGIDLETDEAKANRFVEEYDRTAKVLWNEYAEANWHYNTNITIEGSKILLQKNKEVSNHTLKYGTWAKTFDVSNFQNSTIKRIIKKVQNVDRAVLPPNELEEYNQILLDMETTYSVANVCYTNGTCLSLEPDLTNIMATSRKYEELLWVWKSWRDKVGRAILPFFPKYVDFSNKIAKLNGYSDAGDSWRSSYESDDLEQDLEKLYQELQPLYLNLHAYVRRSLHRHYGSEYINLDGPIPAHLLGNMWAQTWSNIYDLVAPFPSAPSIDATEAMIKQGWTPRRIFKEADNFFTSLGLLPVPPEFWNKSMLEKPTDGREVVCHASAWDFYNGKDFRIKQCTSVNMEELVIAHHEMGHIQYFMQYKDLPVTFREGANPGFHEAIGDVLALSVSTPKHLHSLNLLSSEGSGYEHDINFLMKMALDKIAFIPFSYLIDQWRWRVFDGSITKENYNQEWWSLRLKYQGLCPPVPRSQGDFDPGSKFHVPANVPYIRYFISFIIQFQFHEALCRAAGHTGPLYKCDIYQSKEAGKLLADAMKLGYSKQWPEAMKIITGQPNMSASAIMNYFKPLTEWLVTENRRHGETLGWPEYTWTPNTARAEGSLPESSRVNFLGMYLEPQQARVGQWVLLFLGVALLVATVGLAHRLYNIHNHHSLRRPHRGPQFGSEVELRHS
Assay: Compound was tested for plasma inhibition of Angiotensin I converting enzyme activity in the conscious rat. Expressed as Inhibition of AI pressor response at 1 hr at a dose of 12.8 mg/kg po
Assay type: organism-based
Set-up: dose 12.8 mg/kg
Please note: TRUE applies when inhibition is 60% or greater, and FALSE applies otherwise.

Input: In plain terms: is recorded inhibition at least 60% for CCCCOC(=O)[C@H](Cc1ccc(O)cc1)NC(=O)C1(NC(=O)[C@H](SC(=O)CC)C(C)C)CCCC1 ?
Output: FALSE

Input: In plain terms: is recorded inhibition at least 60% for CCOC(=O)[C@H](Cc1ccc(O)cc1)NC(=O)C1(NC(=O)[C@H](SC(=O)C(C)(C)C)C(C)C)CCCC1 ?
Output: FALSE

Input: In plain terms: is recorded inhibition at least 60% for CCOC(=O)[C@H](Cc1ccc(OC(C)=O)cc1)NC(=O)C1(NC(=O)[C@H](SC(C)=O)C(C)C)CCCC1 ?
Output: TRUE

Input: In plain terms: is recorded inhibition at least 60% for CCCCOC(=O)[C@H](Cc1ccc(OC)cc1)NC(=O)C1(NC(=O)[C@H](SC(C)=O)C(C)C)CCCC1 ?
Output: TRUE

Input: In plain terms: is recorded inhibition at least 60% for CCOC(=O)[C@H](Cc1ccc(O)cc1)NC(=O)C1(NC(=O)[C@H](SC(=O)CN(C)C)C(C)C)CCCC1 ?
Output: TRUE
